system: PANC-1; assay: SRB colorimetric assay of cell growth and viability, PANC-1; type: cell-based, human; conditions: PANC-1; 48 hours exposure; read-out: LC50 PANC-1
Where a SMILES comes first, the peptide text is derived from it. Bridges are numbered along the chain shown (N, C = ends). [ ]: non-standard residue; d: D form. The star is where a group is joined. d(aIle) = CC[C@H](C)[C@@H](N)C(=O)O; d(aThr) = C[C@@H](O)[C@@H](N)C(=O)O; Hexanoyl(5-Me) = CC(C)CCCC(=O)*; Orn = NCCC[C@H](N)C(=O)O; Dhb = C/C=C(\N)C(=O)O
Endpoint: CC50 (µM)
Give a bare numeral; the unit µM is implied.

C/C=C1\NC(=O)[C@H](Cc2ccccc2)NC(=O)[C@@H](C(C)C)NC(=O)[C@@H]([C@@H](C)CC)NC(=O)[C@H](NC(=O)[C@H](NC(=O)[C@H](CCCN)NC(=O)[C@H]2CCCN2C(=O)[C@H](NC(=O)[C@@H](NC(=O)[C@@H](NC(=O)[C@@H](CCCN)NC(=O)CCCC(C)C)[C@@H](C)O)C(C)C)C(C)C)[C@@H](C)CC)[C@@H](C)OC(=O)[C@H](C(C)C)NC1=O [Compound 118, [D-Orn^13]-KF] | 6.7

Item: C/C=C1\NC(=O)[C@H](Cc2ccccc2)NC(=O)[C@@H](C(C)C)NC(=O)[C@@H]([C@@H](C)CC)NC(=O)[C@H](NC(=O)[C@H](NC(=O)[C@H](CCCN)NC(=O)[C@H]2CCCN2C(=O)[C@H](NC(=O)[C@@H](NC(=O)[C@H](CCCN)NC(=O)[C@H](NC(=O)CCCC(C)C)C(C)C)C(C)C)C(C)C)[C@@H](C)CC)[C@@H](C)OC(=O)[C@H](C(C)C)NC1=O [Compound 116, [Orn^12]-KF] ({Hexanoyl(5-Me)}-[dV][Orn]V[dV][dP][Orn][d(aIle)][d(aThr)][d(aIle)][dV]F[Dhb]V; ester 8-C) Test system: PANC-1 Read-out: CC50 Value: ?
6.71

====

system: IGROV-1; assay: SRB colorimetric assay of cell growth and viability, IGROV-1; format: cell-based, human; settings: IGROV; 48 hours exposure
Where a SMILES comes first, the peptide text is derived from it. Bridges are numbered along the chain shown (N, C = ends). [ ]: non-standard residue; d: D form. The star is where a group is joined. d(aIle) = CC[C@H](C)[C@@H](N)C(=O)O; d(aThr) = C[C@@H](O)[C@@H](N)C(=O)O; Hexanoyl(5-Me) = CC(C)CCCC(=O)*; Orn = NCCC[C@H](N)C(=O)O; Dhb = C/C=C(\N)C(=O)O
Endpoint: LC50 (concentration causing 50% net cell killing) (µM)
Give a bare numeral; the unit µM is implied.

C/C=C1\NC(=O)[C@H](Cc2ccccc2)NC(=O)[C@@H](C(C)C)NC(=O)[C@@H]([C@@H](C)CC)NC(=O)[C@H](NC(=O)[C@H](NC(=O)[C@H](CCCN)NC(=O)[C@H]2CCCN2C(=O)[C@H](NC(=O)[C@@H](NC(=O)[C@@H]2CCCN2C(=O)[C@H](NC(=O)CCCC(C)C)C(C)C)C(C)C)C(C)C)[C@@H](C)CC)[C@@H](C)OC(=O)[C@H](C(C)C)NC1=O [Compound 117, [Pro^12]-KF] ({Hexanoyl(5-Me)}-[dV]PV[dV][dP][Orn][d(aIle)][d(aThr)][d(aIle)][dV]F[Dhb]V; ester 8-C) | 6.78
C/C=C1\NC(=O)[C@H](Cc2ccccc2)NC(=O)[C@@H](C(C)C)NC(=O)[C@@H]([C@@H](C)CC)NC(=O)[C@H](NC(=O)[C@H](NC(=O)[C@H](CCCN)NC(=O)[C@H]2CCCN2C(=O)[C@H](NC(=O)[C@@H](NC(=O)[C@H](Cc2ccccc2)NC(=O)[C@H](NC(=O)CCCC(C)C)C(C)C)C(C)C)C(C)C)[C@@H](C)CC)[C@@H](C)OC(=O)[C@H](C(C)C)NC1=O [Compound 114, [Phe^12]-KF] ({Hexanoyl(5-Me)}-[dV]FV[dV][dP][Orn][d(aIle)][d(aThr)][d(aIle)][dV]F[Dhb]V; ester 8-C) | 6.56
C/C=C1\NC(=O)[C@H](Cc2ccccc2)NC(=O)[C@@H](C(C)C)NC(=O)[C@@H]([C@@H](C)CC)NC(=O)[C@H](NC(=O)[C@H](NC(=O)[C@H](CCCN)NC(=O)[C@H]2CCCN2C(=O)[C@H](NC(=O)[C@@H](NC(=O)[C@@H](NC(=O)[C@@H](CCCN)NC(=O)CCCC(C)C)[C@@H](C)O)C(C)C)C(C)C)[C@@H](C)CC)[C@@H](C)OC(=O)[C@H](C(C)C)NC1=O [Compound 118, [D-Orn^13]-KF] | 5.24

Alright, here's another compound for you.
Give the measured LC50 (concentration causing 50% net cell killing) of C/C=C1\NC(=O)[C@H](Cc2ccccc2Cl)NC(=O)[C@@H](C(C)C)NC(=O)[C@@H]([C@@H](C)CC)NC(=O)[C@H](NC(=O)[C@H](NC(=O)[C@H](CCCN)NC(=O)[C@H]2CCCN2C(=O)[C@H](NC(=O)[C@@H](NC(=O)[C@@H](NC(=O)[C@H](NC(=O)CCCC(C)C)C(C)C)[C@@H](C)O)C(C)C)C(C)C)[C@@H](C)CC)[C@@H](C)OC(=O)[C@H](C(C)C)NC1=O [Compound 81, [Phe(2-Cl)^3]-KF] .
0.596
